- Tested on: Immunoglobulin E (IgE) (Homo sapiens), P01854-1
- Sequence (P01854 other isoform, or with tags, fused parts or gaps): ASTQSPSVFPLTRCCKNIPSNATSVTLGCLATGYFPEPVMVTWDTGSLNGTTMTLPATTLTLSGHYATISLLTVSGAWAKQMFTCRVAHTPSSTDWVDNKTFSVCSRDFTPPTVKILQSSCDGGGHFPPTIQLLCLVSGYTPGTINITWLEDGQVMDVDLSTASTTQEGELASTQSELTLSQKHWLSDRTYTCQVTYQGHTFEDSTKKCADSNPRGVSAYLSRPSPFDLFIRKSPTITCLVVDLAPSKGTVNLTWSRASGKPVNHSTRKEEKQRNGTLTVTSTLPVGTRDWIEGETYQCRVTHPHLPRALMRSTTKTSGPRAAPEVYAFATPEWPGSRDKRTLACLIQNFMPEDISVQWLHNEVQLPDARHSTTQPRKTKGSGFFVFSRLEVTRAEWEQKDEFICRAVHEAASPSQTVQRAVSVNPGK
- TEST_SUMMARY: filter
- STUDY_CONDITIONS: dRmY: 2'-deoxy A,G; 2'-OMe C,U; 1xPBS, BSA, tRNA, ssDNA, 25 C
PARAMETER_MEASURED: pKd
# pKd: negative log10 of molar concentration; output just the value

Request - read-out pKd | tested on Immunoglobulin E (IgE) (Homo sapiens), P01854-1 | sequence UAGCCUGGGGACCCAUGGGGGGCUA [ARC446] 7.37

Request - read-out pKd | tested on Immunoglobulin E (IgE) (Homo sapiens), P01854-1 | sequence AGUUCUGGGGACCCAUGGGGGAACU [ARC443] 7.26

Request - read-out pKd | tested on Immunoglobulin E (IgE) (Homo sapiens), P01854-1 | sequence GCCUGGGGACCCAUGGGGGGC [ARC444] 7.14
